Below, each entry is listed alongside its reported Survival of 293 cells.
tested on: Human 293 cells; experiment: Survival of 293 cells (Coulter counter); type: cell-based; conditions: 96 h, 50 micromolar
All answers are understood in %, so give the number only.

Assign Survival of 293 cells to the following record: CCc1ccc(/C=C/c2cc(O)cc(O)c2)cc1
8

---

system: Human 293 cells; assay: Survival of 293 cells (Coulter counter); format: cell-based; conditions: 48 h, 50 micromolar
assay_readout: Survival of 293 cells

Assign Survival of 293 cells to the following record: Oc1ccc(/C=C/c2cc(O)cc(O)c2)cc1 [Resveratrol, 3,5,4′-Trihydroxy-trans-stilbene]
5%

Assign Survival of 293 cells to the following record: CSc1ccc(/C=C/c2cc(O)cc(O)c2)cc1
55%

Assign Survival of 293 cells to the following record: CCc1ccc(/C=C/c2cc(O)cc(O)c2)cc1
5%

Assign Survival of 293 cells to the following record: Cc1ccc(/C=C/c2cc(O)cc(O)c2)cc1
46%

---

tested on: Human 293 cells; experiment: Survival of 293 cells (Coulter counter); assay type: cell-based; details: 96 h, 50 micromolar
Below, each entry is listed alongside its reported Survival of 293 cells.
All answers are understood in %, so give the number only.

Previously resolved entries follow.
[
  {
    "compound": "CSc1ccc(/C=C/c2cc(O)cc(O)c2)cc1 [BML-230]",
    "Survival of 293 cells [%]": 57
  },
  {
    "compound": "Oc1ccc(/C=C/c2cc(O)cc(O)c2)cc1 [Resveratrol, 3,5,4′-Trihydroxy-trans-stilbene]",
    "Survival of 293 cells [%]": 0
  }
]

// switching to the query compound
Assign Survival of 293 cells to the following record: Cc1ccc(/C=C/c2cc(O)cc(O)c2)cc1 [BML-228]
32

Data provenance: patent US7544497B2
